systemUnderTest: full length human PD-1 on HEK293/hPD-1 cells (human, UniProt Q15116 25-288)
Sequence (Q15116 25-288 limits assumed): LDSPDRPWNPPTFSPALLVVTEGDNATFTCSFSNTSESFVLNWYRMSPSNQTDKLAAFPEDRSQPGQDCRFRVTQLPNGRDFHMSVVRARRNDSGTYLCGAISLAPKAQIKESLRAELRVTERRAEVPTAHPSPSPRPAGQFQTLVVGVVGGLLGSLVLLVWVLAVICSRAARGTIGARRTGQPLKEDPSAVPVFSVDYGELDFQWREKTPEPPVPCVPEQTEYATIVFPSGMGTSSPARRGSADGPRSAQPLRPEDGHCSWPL
assayNotes: FACS, 100 nM mAb
Assign ratio of MFI HEK293/hPD-1 to HEK293 parental cells to each entry below.
Answers are plain numbers.

Some solved entries appear below for comparison.
H2aM7795N (antibody, V domains shown, human variable regions, mouse IgG2a Fc; also called H2M7795N) VH: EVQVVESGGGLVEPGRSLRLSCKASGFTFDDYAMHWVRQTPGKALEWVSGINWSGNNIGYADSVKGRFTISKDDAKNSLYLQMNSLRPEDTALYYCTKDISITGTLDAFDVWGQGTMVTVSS VL: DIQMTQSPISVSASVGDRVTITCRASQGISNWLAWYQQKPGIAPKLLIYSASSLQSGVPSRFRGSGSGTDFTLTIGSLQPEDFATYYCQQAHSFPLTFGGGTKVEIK	2.8
H2aM7798N (antibody, V domains shown, human variable regions, mouse IgG2a Fc; also called H2M7798N) VH: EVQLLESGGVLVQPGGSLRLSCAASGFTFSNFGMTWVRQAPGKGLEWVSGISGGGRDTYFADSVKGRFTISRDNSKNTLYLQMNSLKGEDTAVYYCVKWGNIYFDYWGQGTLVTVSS VL: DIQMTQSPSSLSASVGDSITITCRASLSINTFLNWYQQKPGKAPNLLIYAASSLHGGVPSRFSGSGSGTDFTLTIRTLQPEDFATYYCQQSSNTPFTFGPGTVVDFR	78.1
H1M7799N (antibody, V domains shown, human variable regions, mouse IgG1 Fc) VH: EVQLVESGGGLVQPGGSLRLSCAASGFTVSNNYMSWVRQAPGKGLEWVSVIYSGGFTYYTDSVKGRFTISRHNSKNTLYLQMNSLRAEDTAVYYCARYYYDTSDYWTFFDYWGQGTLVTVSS VL: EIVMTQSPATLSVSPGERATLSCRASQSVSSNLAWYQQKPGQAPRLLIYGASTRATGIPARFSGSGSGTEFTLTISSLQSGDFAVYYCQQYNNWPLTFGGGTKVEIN	26.9
H2aM7796N (antibody, V domains shown, human variable regions, mouse IgG2a Fc; also called H2M7796N) VH: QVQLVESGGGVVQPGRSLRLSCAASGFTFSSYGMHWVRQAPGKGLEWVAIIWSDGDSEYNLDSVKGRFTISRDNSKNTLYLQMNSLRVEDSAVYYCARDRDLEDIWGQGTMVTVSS VL: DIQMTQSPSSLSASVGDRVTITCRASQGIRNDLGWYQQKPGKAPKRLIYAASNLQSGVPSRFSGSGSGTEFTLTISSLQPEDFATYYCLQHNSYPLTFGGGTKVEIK	168

# context switch: different binder, same ratio of MFI HEK293/hPD-1 to HEK293 parental cells
Prompt: I am curious: what ratio of MFI HEK293/hPD-1 to HEK293 parental cells value has been reported for H1M7789N (antibody, V domains shown, human variable regions, mouse IgG1 Fc) VH: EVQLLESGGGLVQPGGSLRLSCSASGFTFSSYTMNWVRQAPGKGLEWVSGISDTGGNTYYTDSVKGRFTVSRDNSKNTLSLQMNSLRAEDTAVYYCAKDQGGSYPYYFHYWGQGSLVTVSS VL: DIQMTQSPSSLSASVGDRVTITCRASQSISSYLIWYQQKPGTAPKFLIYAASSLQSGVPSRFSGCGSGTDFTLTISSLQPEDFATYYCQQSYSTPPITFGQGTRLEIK ?
Completion: 92.3
